target: Papain (Carica papaya); assay: Inhibition of papaya papain using cbzFRamc substrate preincubated for 10 mins followed by addition of substrate and measured every 30 sec for 60 mins by fluorescence based assay
Sequence (P00784 whole entry): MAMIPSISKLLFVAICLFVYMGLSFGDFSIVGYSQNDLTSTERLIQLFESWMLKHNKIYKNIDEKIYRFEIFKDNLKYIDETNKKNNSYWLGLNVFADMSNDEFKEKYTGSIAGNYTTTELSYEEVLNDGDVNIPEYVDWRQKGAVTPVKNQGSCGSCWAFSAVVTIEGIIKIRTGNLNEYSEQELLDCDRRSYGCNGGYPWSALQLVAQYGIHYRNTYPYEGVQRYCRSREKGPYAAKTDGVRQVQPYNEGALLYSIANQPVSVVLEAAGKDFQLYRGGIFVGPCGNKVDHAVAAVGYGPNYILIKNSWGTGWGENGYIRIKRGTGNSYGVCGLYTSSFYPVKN
pIC50: −log10 of the molar value.
Property: pIC50; scope: individual molecules
readout_label: pIC50

CC(C)[C@H](NC(=O)[C@H](CCCNC(=N)N)NC(=O)N[C@@H](Cc1ccccc1)C(=O)O)C(=O)N[C@H](C=O)CCCNC(=N)N [ANTIPAIN] ... 8.47
CC(C)[C@H](NC(=O)[C@@H](NC(=O)N[C@@H](Cc1ccc(O)cc1)C(=O)O)[C@H]1CCNC(=N)N1)C(=O)N[C@H](C=O)Cc1ccccc1 ... 7.75

###

species: Homo sapiens; assay: Binding affinity to chymotrypsin (unknown origin) assessed as change in melting temperature at 200 uM incubated for 15 mins by scanning fluorimetry
Each entry below carries its recorded ΔTm.
readout_label: ΔTm (°C)

CC(C)[C@H](NC(=O)[C@H](CCCNC(=N)N)NC(=O)N[C@@H](Cc1ccccc1)C(=O)O)C(=O)N[C@H](C=O)CCCNC(=N)N [ANTIPAIN] ... 1.7
CC(=O)N[C@@H](CC(C)C)C(=O)N[C@@H](CC(C)C)C(=O)N[C@H](C=O)CCCNC(=N)N ... 0.2
CC(C)[C@H](NC(=O)[C@@H](NC(=O)N[C@@H](Cc1ccc(O)cc1)C(=O)O)[C@H]1CCNC(=N)N1)C(=O)N[C@H](C=O)Cc1ccccc1 ... 13.5
CC(C)[C@H](NC(=O)[C@@H](NC(=O)N[C@@H](Cc1ccc(O)cc1)C(=O)O)[C@H]1CCNC(=N)N1)C(=O)N[C@H](C=O)Cc1ccc(O)cc1 ... 15.1

###

Listing of entries alongside the reported ΔTm.
molecular target: Papain (Carica papaya) (UniProt P00784); experiment: Binding affinity to papaya papain assessed as change in melting temperature at 200 uM incubated for 15 mins by scanning fluorimetry
readout_label: ΔTm (°C)

CC(C)[C@H](NC(=O)[C@H](CCCNC(=N)N)NC(=O)N[C@@H](Cc1ccccc1)C(=O)O)C(=O)N[C@H](C=O)CCCNC(=N)N [ANTIPAIN] ... 0.9
CC(C)[C@H](NC(=O)[C@@H](NC(=O)N[C@@H](Cc1ccc(O)cc1)C(=O)O)[C@H]1CCNC(=N)N1)C(=O)N[C@H](C=O)Cc1ccc(O)cc1 ... 0.9
CC(=O)N[C@@H](CC(C)C)C(=O)N[C@@H](CC(C)C)C(=O)N[C@H](C=O)CCCNC(=N)N ... 1
CC(C)[C@H](NC(=O)[C@@H](NC(=O)N[C@@H](Cc1ccc(O)cc1)C(=O)O)[C@H]1CCNC(=N)N1)C(=O)N[C@H](C=O)Cc1ccccc1 ... 0.9
